# EC50 annotations
tested on: H4; test: Luminescence Cell-Based Dose Response HTS to Identify Activators of 5'UTR Stem-Loop Driven Prion Protein mRNA Translation in H4 Neuroglioblastoma Cells. [Related pubchem assays: 1829 (Project Summary), 1814 (Primary HTS)]; format: functional; conditions: Homo sapiens
Active and inactive are the calls of the source.

query: Using known records, supply EC50 for `O=C(CCCc1ccccc1)NC12CC3CC(CC(C3)C1)C2`
result: > 120 µM (not active)

query: For the compound `COc1cccc(CNC(=O)CN2C(=O)CSc3ccc(S(=O)(=O)N4CCCCC4)cc32)c1` , give its measured EC50 value.
result: > 120 µM (not active)

query: Complete the entry with EC50 for `O=C(Nc1cccc(Cn2cccn2)c1)c1cc2c(s1)CCCC2`
result: 10.9 µM (active)

query: Supply recorded EC50 for `COc1cccc2cc(CC(=O)c3ccc(C)cc3C)c(=O)oc12` here.
result: 11 µM (active)

---

target: Cytochrome P450 3A4 (Homo sapiens, UniProt P08684); settings: Potency;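 also: confirmatory qHTS run detecting inhibitors and substrates of CYP3A4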
Sequence (P08684 whole entry): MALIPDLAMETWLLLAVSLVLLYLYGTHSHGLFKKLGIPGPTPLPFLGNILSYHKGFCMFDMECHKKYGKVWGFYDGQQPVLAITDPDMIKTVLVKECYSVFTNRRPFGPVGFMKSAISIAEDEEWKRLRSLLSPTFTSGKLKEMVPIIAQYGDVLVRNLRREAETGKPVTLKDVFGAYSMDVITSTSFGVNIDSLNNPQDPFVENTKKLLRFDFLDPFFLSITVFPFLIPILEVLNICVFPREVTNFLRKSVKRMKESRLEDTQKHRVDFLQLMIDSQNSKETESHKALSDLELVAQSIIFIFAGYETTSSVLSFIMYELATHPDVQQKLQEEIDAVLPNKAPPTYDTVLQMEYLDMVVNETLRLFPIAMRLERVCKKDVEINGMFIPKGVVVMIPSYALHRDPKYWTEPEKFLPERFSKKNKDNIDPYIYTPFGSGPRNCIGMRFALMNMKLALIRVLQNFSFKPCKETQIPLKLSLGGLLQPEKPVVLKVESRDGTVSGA
Reported AC50 by item:

These solved cases illustrate the format of a correct answer.
CCC12C=CCN3CCC4(c5ccc(OC)cc5N(C)C4[C@@](O)(C(=O)OC)C1OC(C)=O)C32 (some centres not stated)	3.98 µM (inconclusive)
CC(=O)OC1CC2C(C)(C)C(=O)[C@@H]3OC3[C@@]2(C)C2CC[C@]3(C)C(=CC(=O)OC3c3ccoc3)[C@]12C (some centres not stated)	15.8 µM (inconclusive)
COc1ccc(C2OCC3(COC(C)=O)C(C)C=C(C)C2C3C)cc1 (configuration not stated)	15.8 µM (inconclusive)

query: Provide AC50 value for the following molecule: COc1ccc(OC2C=CC(c3ccccc3)OC2CO)c(C(C)=O)c1 (configuration not stated)
result: 3.98 µM (inconclusive)

query: Please report AC50 for the following molecule: `CN(C)C(=O)c1ccc(-c2nc(N(C)C)c3ccccc3n2)cc1`
result: 1.58 µM (inconclusive)

query: Return AC50 (reported value) for this molecule: `Oc1ccccc1O`
result: 10 µM (inconclusive)

query: Return AC50 (reported value) for this molecule: Cc1nc(N2CCOCC2)c2nc(-c3ccccc3)n(CCCN3CCCCC3C)c2n1 (configuration not stated)
result: 15.8 µM (inconclusive)

---

target: Ubiquitin-conjugating enzyme E2 N (Homo sapiens); type: functional;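 also: Dose-response confirmation in a TR-FRET assay detecting UBC13-driven polyubiquitin chain formation, inhibition measured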
Sequence (P61088 whole entry): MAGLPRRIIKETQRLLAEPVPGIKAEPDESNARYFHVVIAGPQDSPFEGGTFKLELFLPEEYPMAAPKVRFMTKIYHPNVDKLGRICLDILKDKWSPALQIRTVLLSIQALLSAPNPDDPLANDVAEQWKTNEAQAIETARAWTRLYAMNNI
Active and inactive are the calls of the source.
// classify into active, inactive

Worked cases, answers included:
O=c1c2cc(NC(=S)NCCCN3CCC(Cc4ccccc4)CC3)ccc2nc2n1CCCCC2	inactive
CCC(=O)N1c2ccc(C)cc2C2=NN=C(S)NC21O (stereo not drawn)	inactive
CCSc1ccc2c(c1)N(CCCN1CCN(C)CC1)c1ccccc1S2	inactive

query: Could you check what this test reported for CC1CC(C)CN(CCCNC(=O)c2cc3c(s2)-c2ccccc2OC3)C1 (stereo not drawn) ?
result: inactive

query: Assay outcome for `COc1ccc(/C=C/C(=O)Nc2c(C)nn(C)c2C)cc1COc1ccc(Cl)cc1Br` : what was it?
result: active

query: What did the test return for `COc1ccc(-c2nnc(SCC(=O)Nc3cc(F)ccc3C)o2)cc1` ?
result: inactive

query: Which outcome was entered for the molecule COc1ccc(C(CNC(=O)c2ccc(S(=O)(=O)Nc3ccccc3F)cc2)N(C)C)cc1 (stereo not drawn) in this test?
result: active

query: Can you look up the reported call for `CCOc1ccc(-c2n[nH]cc2Oc2cccc(OC)c2)c(O)c1` for me?
result: inactive
